B1: Homeobox protein SIX3, residues 212 to 262; numbered along this chain, O95343 (parent)
chain: CFKERTRSLLREWYLQDPYPNPSKKRELAQATGLTPTQVGNWFKNRRQRDR

- Variants of: B1
- ASSAY: abundance fitness (aPCA) (normalised: wild type 0, dead -1); higher = more abundant; growth selection in yeast, the domain comes from the species named
- MEASUREMENT_CONDITIONS: Homo sapiens

| MACROMOLECULE_SEQUENCE | abundance fitness |
| --- | --- |
| CFKERTRSLLREWYLQDPYPNPSKKRELAQATGLRPTQVGNWFKNRRQRDR [T35R] | -0.704 |
| CFKERTRSLLREWYLQDPYPNPHKKRELAQATGLTPTQVGNWFKNRRQRDR [S23H] | -0.356 |
| CFKERTRSLLREWYLQDPYPNPSKMRELAQATGLTPTQVGNWFKNRRQRDR [K25M] | 0.004 |
| CFKERTRSLLREWYLQDPYPNPSKKRELWQATGLTPTQVGNWFKNRRQRDR [A29W] | -0.704 |
| CFKERTRSLLREWYLQDPYPNPSKKRELAQATGLTPTFVGNWFKNRRQRDR [Q38F] | -0.663 |
| CFKERTRSLLREWYLQDPYPNPSKKRELAQATGLTPTQVGLWFKNRRQRDR [N41L] | -0.516 |
| CFKERTRSLLREWYLQDPYPNPSKKRELAQATFLTPTQVGNWFKNRRQRDR [G33F] | -0.774 |
| CFKERTRSLLREWYLQDPYPNPSKKRRLAQATGLTPTQVGNWFKNRRQRDR [E27R] | -0.573 |
| CFKERTRSLLREWYLQDPYPNPSKKRELAQATGLTPTQVMNWFKNRRQRDR [G40M] | -0.621 |
| CFKERTRSLLREWYLQDPYPNPSKKRELAQATGLTPTQGGNWFKNRRQRDR [V39G] | -0.731 |
| CFKERTRSLLREWYLQDPYPNPSKKRELAQAIGLTPTQVGNWFKNRRQRDR [T32I] | -0.591 |
| CFKERTRSLLREWYLQDPYPNPSKKRELAQATGLTPTQQGNWFKNRRQRDR [V39Q] | -0.78 |
| CFKERTRSLLREWYLQDPYPNPSKKRPLAQATGLTPTQVGNWFKNRRQRDR [E27P] | -0.785 |
| CFKERTRSLLREWYLQDPYPNPSKKREMAQATGLTPTQVGNWFKNRRQRDR [L28M] | 0.029 |
| CFKERTRSLLREWYLQDPYPNPSKKRELAQATGLTPLQVGNWFKNRRQRDR [T37L] | -0.255 |
| CFKERTRSLLREWYLQDPYPNPSKKRELEQATGLTPTQVGNWFKNRRQRDR [A29E] | -0.888 |
| CFKERTRSLLREWYLQDPYPNPSKKRELAVATGLTPTQVGNWFKNRRQRDR [Q30V] | -0.163 |
| CFKERTRSLLREWYLQDPYPNPSKKRELAQATGTTPTQVGNWFKNRRQRDR [L34T] | -0.73 |
| CFKERTRSLLREWYLQDPYPNPSKKRKLAQATGLTPTQVGNWFKNRRQRDR [E27K] | 0.121 |
| CFKERTRSLLREWYLQDPYPNPSKVRELAQATGLTPTQVGNWFKNRRQRDR [K25V] | -0.019 |
| CFKERTRSLLREWYLQDPYPNPSKKRELAQATGLTPTQCGNWFKNRRQRDR [V39C] | -0.969 |
| CFKERTRSLLREWYLQDPYPNPSKKRELAQATALTPTQVGNWFKNRRQRDR [G33A] | -0.674 |
| CFKERTRSLLREWYLQDPYPNPSKKRELAQATGVTPTQVGNWFKNRRQRDR [L34V] | -0.881 |
| CFKERTRSLLREWYLQDPYPNPSKKRELCQATGLTPTQVGNWFKNRRQRDR [A29C] | -0.588 |
| CFKERTRSLLREWYLQDPYPNPSKKRELAQAFGLTPTQVGNWFKNRRQRDR [T32F] | -0.922 |
| CFKERTRSLLREWYLQDPYPNPSKKRELAQATGLTWTQVGNWFKNRRQRDR [P36W] | -0.536 |
| CFKERTRSLLREWYLQDPYPNPSKKRELAQATGLTPTAVGNWFKNRRQRDR [Q38A] | -0.338 |
| CFKERTRSLLREWYLQDPYPNPYKKRELAQATGLTPTQVGNWFKNRRQRDR [S23Y] | -0.761 |
| CFKERTRSLLREWYLQDPYPNPSKERELAQATGLTPTQVGNWFKNRRQRDR [K25E] | 0.008 |
| CFKERTRSLLREWYLQDPYPNPSKKRELAPATGLTPTQVGNWFKNRRQRDR [Q30P] | -0.93 |
| CFKERTRSLLREWYLQDPYPNPSKKRELASATGLTPTQVGNWFKNRRQRDR [Q30S] | -0.044 |
| CFKERTRSLLREWYLQDPYPNPSKKRELAQATGLTPTQKGNWFKNRRQRDR [V39K] | -0.945 |
| CFKERTRSLLREWYLQDPYPNPSKKRELAQASGLTPTQVGNWFKNRRQRDR [T32S] | -0.43 |
| CFKERTRSLLREWYLQDPYPNPSKKRELAQATGLTPTQEGNWFKNRRQRDR [V39E] | -0.96 |
| CFKERTRSLLREWYLQDPYPNPSKKRELAFATGLTPTQVGNWFKNRRQRDR [Q30F] | -0.284 |
| CFKERTRSLLREWYLQDPYPNPSKDRELAQATGLTPTQVGNWFKNRRQRDR [K25D] | -0.753 |
| CFKERTRSLLREWYLQDPYPNPSKKRELPQATGLTPTQVGNWFKNRRQRDR [A29P] | -0.911 |
| CFKERTRSLLREWYLQDPYPNPSWKRELAQATGLTPTQVGNWFKNRRQRDR [K24W] | -0.896 |
| CFKERTRSLLREWYLQDPYPNPSKKYELAQATGLTPTQVGNWFKNRRQRDR [R26Y] | -0.286 |
| CFKERTRSLLREWYLQDPYPNPSKKRELAQATGLTPTQVGQWFKNRRQRDR [N41Q] | -0.402 |
| CFKERTRSLLREWYLQDPYPNPSKKRELAQATGFTPTQVGNWFKNRRQRDR [L34F] | -0.823 |
